Tested Target: T1, PUF4 RNA-binding domain (Saccharomyces cerevisiae, UniProt P25339 537-888)
T1 sequence: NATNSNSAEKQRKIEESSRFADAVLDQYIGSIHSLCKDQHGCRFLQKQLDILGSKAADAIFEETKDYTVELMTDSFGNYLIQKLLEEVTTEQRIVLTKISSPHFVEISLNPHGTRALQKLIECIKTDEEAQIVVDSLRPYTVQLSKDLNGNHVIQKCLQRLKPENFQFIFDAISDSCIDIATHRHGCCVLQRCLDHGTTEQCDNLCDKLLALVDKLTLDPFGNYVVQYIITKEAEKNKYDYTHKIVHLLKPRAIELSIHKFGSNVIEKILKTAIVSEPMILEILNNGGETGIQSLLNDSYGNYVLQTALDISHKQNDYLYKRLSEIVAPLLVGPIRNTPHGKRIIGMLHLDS
Assay Info: Mg; RNA-MaP; 20 mM Na-HEPES pH 7.4, 30 mM KOAc, 0.75 mM MgCl2, 0.1% Tween-20, 5% glycerol, 0.1 mg/mL BSA, 2 mM DTT; 25 C; 0.0125-409.6 nM protein
Test Parameters: tags: N-His6-TEV cleaved; C-SNAP kept, Cy3B-labelled; label: tethered on chip by stalled RNA polymerase
Observed Property: pKd
By convention, pKd is the negative base-10 log of a molar concentration.

The following binders have reported results that may help.
{"Binder": "Ie_S2_P4E.1_K4.1_C4.1_H4.1_[+1TTC]_A4.1_F4.1_T4.1 (ssRNA) RNA: UUUGAUUAAUAUGAUAUCGUUCUUUCUUUUCGUAUAUUAUUCUUUCUCGAUAUCAUAUUAAUCUUU", "pKd": 8.15}
{"Binder": "UCUCUUUUUGUAUUAUUAGUUCUCUU (ssRNA) [Id_ii_S1_P5E.2_K5.1_C5.2_[C-2T]_H5.1_A5.1_F5.1_T5.2_[T11G]_[A12T]]", "pKd": 8.46}

Turning to the following binder.
### Prompt Please report the recorded pKd for UCUCUUUGUACUCCUUCUCUU (ssRNA) [Ic_S1_P4E.1_K4.1_C4.1_H4.1_A4.1_[T5C]_[A6T]_[T7C]_F4.1_[T8C]_[A9T]_T4.1] .
### Response 6.39
